Test system: MDA-MB-231 breast
experiment: NCI tumour cell line growth inhibition, 48 h; in the data active means GI50 below about 0.43 µM; inactive means the rest
Select the correct class. Options are active, inactive and nothing else.

Q) Per the assay record, what outcome was assigned to `O=C(O)c1cc2c(c3ccsc13)-c1ccccc1CC2` ?
A) inactive

Q) In this assay, the call recorded for `Cc1ccc2cnc(N)c(C#Cc3cncc(C(=O)Nc4ccc(CN5CCN(C)CC5)c(C(F)(F)F)c4)c3)c2c1` was what?
A) active

Q) Answer briefly: the call reported for `N#Cc1ncc(N2C(=O)C3(CCC3)N(c3ccc(OC4CCNCC4)nc3)C2=S)cc1C(F)(F)F` in this assay.
A) inactive

Q) Which outcome was entered for the compound `CC(=O)O[C@H](C[C@H](C(C)C)N(C)C(=O)[C@@H](NC(=O)[C@H]1CCCCN1C)C(C)(C)C)c1nc(C(=O)N[C@@H](Cc2ccccc2)C[C@H](C)C(=O)O)cs1` in this test?
A) active

Q) What did this assay record as the result for `NC(=S)N/N=C\c1nccc2c(C(F)(F)C(F)(F)C(F)(F)F)cccc12` ?
A) active

Q) Outcome logged for `CS(=O)(=O)Nc1cc(-c2ccc3ncnc(Nc4cccc(Cl)c4F)c3c2)cnc1Cl` in this assay:
A) inactive

###

System: EKVX NSCLC
experiment: NCI tumour cell line growth inhibition, 48 h; in the data active means GI50 below about 0.43 µM; inactive means the rest
Outcome (select one): active, inactive

Q) Test call for this compound, please: `COc1cc(/C=C\c2cc(OC)c(OC)c(OC)c2)cc(NS(=O)(=O)c2cccc(Cl)c2)c1OC`
A) active

Q) What is the recorded call for this compound in the test? Cc1nc2sc(C(=O)Nc3cccc(Cl)c3C)c(N)c2cc1C(C)O (stereo unspecified)
A) inactive

Q) Hi, do you know how `CC(C)(F)C[C@H](N[C@@H](c1ccc(-c2ccc(S(C)(=O)=O)cc2)cc1)C(F)(F)F)C(=O)NC1(C#N)CC1` came out in this test?
A) inactive

Q) Could you please tell me the result logged for `CC[C@H](C)[C@H](NC(=O)c1nccn1C)C(=O)N(C)[C@H](C[C@@H](OC(C)=O)c1nc(C(=O)N[C@@H](Cc2ccccc2)C[C@H](C)C(=O)OC)cs1)C(C)C` in this assay?
A) inactive

Q) Hi, sorry to bother you, what did the test record for `O=C(c1ccccc1)c1ccccc1C(=O)c1ccccc1` ?
A) inactive

Q) Query: recorded result category for `CC(=O)NS(=O)(=O)c1ccc(-n2nc(-c3ccccc3)cc2C2=CC(=O)C=CC2=O)cc1` in this test
A) inactive

Q) Tell me the recorded outcome of this test for `C=C1C(=O)O[C@H]2[C@H]1CC/C(COC(=O)/C=C/c1c[nH]c3ccccc13)=C\CC[C@@]1(C)O[C@@H]21` .
A) active

Q) Recorded test call requested for N#CC1CCc2c(c(-c3cn[nH]c3C(F)(F)F)nc3c(F)cc4[nH]ncc4c23)C1 (stereo unspecified)
A) inactive

Q) Could you check what this test reported for `N#C/C(=C\c1cccnc1)c1nc2ccccc2o1` ?
A) inactive

Q) // return assay outcome for `COc1ccc(S(=O)(=O)n2c3ccccc3n3ncc(-c4nnc(C)o4)c23)cc1`
A) inactive

Q) Each compound tested received a call. Report the one for N=C1C(c2nc(-c3ccc(Br)cc3)cs2)=C(O)CN1CC1CCCO1 (stereo unspecified) .
A) inactive

Q) Test call for this compound, please: `COc1cc(/C=C/c2cc(/C=C/c3ccc(O)c(OC)c3)[nH]c(=O)n2)ccc1O`
A) inactive

Q) Recorded test outcome, item O=C(Nc1ccc(-c2ccnc(Nc3ccc(N4CCOCC4)cc3)n2)cc1)C1CCCN1 (stereo unspecified)
A) inactive

Q) // param item: `Cc1ccc2cnc(N)c(C#Cc3cncc(C(=O)Nc4ccc(CN5CCN(C)CC5)c(C(F)(F)F)c4)c3)c2c1` ; yields the recorded call
A) active

Q) Fill in: this test's call for `C/C=C/C(=O)[O-].N.N.N.N.N.[Co+3].[O-][Cl+3]([O-])([O-])[O-]` is ___
A) inactive

Q) What did the test return for `CC(=O)O[C@H](C[C@H](C(C)C)N(C)C(=O)[C@@H](NC(=O)[C@H]1CCCCN1C)C(C)(C)C)c1nc(C(=O)N[C@@H](Cc2ccccc2)C[C@H](C)C(=O)O)cs1` ?
A) active

###

Test system: LOX IMVI melanoma
experiment: NCI tumour cell line growth inhibition, 48 h
readout_name: TGI

Q) Look at this compound and give its reported TGI. `CC(C)N(Cc1ccccc1)S(=O)(=O)c1n[nH]c(C(C)(C)C)n1`
A) > 100 µM

Q) Can you look up the measured TGI of `CC1(C)N=C(N)N=C(N)N1c1ccc(OCCCCNC(=O)c2ccc(S(=O)(=O)F)cc2)c(Cl)c1` for me?
A) > 100 µM

Q) I would be grateful if you could share the reported TGI for `CC(C)(F)C[C@H](N[C@@H](c1ccc(-c2ccc(S(C)(=O)=O)cc2)cc1)C(F)(F)F)C(=O)NC1(C#N)CC1` .
A) > 100 µM

Q) Param item = `O=C(Nc1cccc([N+](=O)[O-])c1)c1cc2ccccc2cc1O` ; retrieve measured TGI.
A) 7.69 µM

Q) Query: TGI; subject: `COc1cc(N=Nc2cccc(S(N)(=O)=O)c2)c2ccccc2c1N`
A) 18.1 µM

Q) Request the reported TGI associated with `CCCCCCCCC[n+]1cccc(C2C(C(=O)OCC)=C(C)NC(C)=C2C(=O)OCC)c1`
A) 9.34 µM

Q) Please look up its TGI: `CCOC(=O)c1cc(-c2ccn(C(C)=O)c2)c(-c2cc(C)co2)[nH]1`
A) > 100 µM

Q) Give the measured TGI of CCCC(=O)OC1CC(n2cc(F)c(=O)[nH]c2=O)OC1CO (stereo unspecified) .
A) > 10 µM

Q) Consider the compound shown here: `C/C=C/C(=O)[O-].N.N.N.N.N.[Co+3].[O-][Cl+3]([O-])([O-])[O-]` What is its recorded TGI?
A) > 100 µM

Q) // query TGI value for entry `O=c1cccccc1NCCNc1cccccc1=O`
A) > 100 µM

Q) Fill in: TGI of `O=c1oc2ccccc2c(O)c1Cc1cccc(Cc2c(O)c3ccccc3oc2=O)c1` is ___
A) > 100 µM

Q) Could you tell me which TGI is on file for c1ccc2c(c1)c1c3n2-c2cc(on2)C3CCC1 (stereo unspecified) ?
A) > 100 µM

Q) Report TGI for `Cc1cccc(O)c(=O)c1` please.
A) > 100 µM

Q) For the compound Cc1ccc([N+](=O)[O-])cc1NC(=O)C(=O)C1CCC2=C(Sc3ccccc3N2)C1=O (stereo unspecified) , what TGI is on record?
A) > 100 µM

Q) I'd like to know its TGI. The compound in question is `Cc1nn(-c2ccccn2)c2c1C(SC#N)=C(C=O)CC2`
A) 29.1 µM

Q) Can you share its TGI? I mean this compound: C=C1C(=O)O[C@H]2C/C(C=O)=C\[C@H]3O[C@H]3/C(COC(=O)C(C)C)=C/CC12 (stereo partly specified)
A) 11.8 µM

Q) Field request: TGI | item: CCCCCCCCCCCCCCCCNc1ccn(C2CC(OP(=O)(O)OCC3OC(n4cc(CC)c(=O)[nH]c4=O)CC3O)C(CO)O2)c(=O)n1 (stereo unspecified)
A) > 100 µM

Q) Quick check: TGI of CCOC(=O)C1=C(C)N(c2ccc(C)cc2)C2(O)C=CC(=O)C3=C(O)c4ccccc4C(=O)C312 (stereo unspecified) ?
A) 96.8 µM

Q) Report TGI for `FC(F)(F)c1cc(NC2=NCCN=C(Nc3cc(C(F)(F)F)cc(C(F)(F)F)c3)SS2)cc(C(F)(F)F)c1` please.
A) 16.9 µM

Q) # get_value(readout='TGI', item= `CCCCN(CCCC)C(=O)C(=O)CC(=O)/C=C/c1ccccc1` )
A) > 100 µM

Q) Request the reported TGI associated with `C[C@H]1CC2=CC(=O)CC[C@]2(C)[C@H]2CC[C@@]3(C)[C@@H](CC[C@]3(C)O)[C@H]12`
A) > 100 µM

Q) Could you tell me which TGI is on file for `COC(=O)C1=C(c2cc(OC)c(OC)c(OC)c2)O[C@H](c2ccc3c(c2)OCO3)[C@H]1COC(C)=O` ?
A) > 100 µM

Q) Reported TGI, compound COc1cc(CC2CC(c3ccc4c(c3)OCO4)OC2=O)cc(OC)c1OC (stereo unspecified) : ____
A) > 100 µM

Q) Requested read-out: TGI. Entry: `Brc1ccc2c(c1)c(-c1nc(-c3c[nH]c4ncccc34)cs1)cn2CCCN1CCCCC1`
A) 3.08 µM

Q) Report TGI for C[C@]12CC[C@H]3[C@@H](CCC4=C[C@@H](OC5OCC(OC6OC(CO)C(O)C(O)C6O)C(O)C5O)CC[C@@]43C=O)[C@@]1(O)CCC2C1=CC(=O)OC1 (stereo partly specified) please.
A) 2.96 µM

Q) Param item = `O=c1oc2cc(OS(=O)(=O)c3ccccc3)ccc2c2c1CCCCC2` ; retrieve measured TGI.
A) > 100 µM

Q) Consider the compound COc1ccc(N2C(=O)C(N3C(=O)C=CC3=O)C2C=O)cc1 (stereo unspecified) and give its measured TGI.
A) > 100 µM

Q) Fill in: TGI of `COc1cc(CNC(=O)CCSc2nc3ccccc3c(=O)n2Cc2cc(OC)c(OC)c(OC)c2)cc(OC)c1OC` is ___
A) > 100 µM

Q) // lookup TGI for `N#Cc1c(NCc2ccccc2)nc(NCc2ccccc2)c(C#N)c1-c1cccc(O)c1`
A) 11.5 µM

Q) What does the record list as TGI for CCC(=O)OC1=CN2C(=NC(c3ccc(N)cc3)=CC2c2cc(OC)c(OC)c(OC)c2)S1 (stereo unspecified) ?
A) 13 µM

Q) Can you look up the measured TGI of COc1ccc(NS(=O)c2cccc(C)c2)cc1 (stereo unspecified) for me?
A) > 100 µM

Q) Would you mind telling me what TGI value was observed for O=S1(=O)CC(Br)C(Br)C1 (stereo unspecified) ?
A) 10 µM

Q) Item under review: C[C@@H](c1ccccc1)N(CC#N)C1CCC[C@H]1O (stereo partly specified) . Reported TGI?
A) > 100 µM

Q) Field request: TGI | item: COc1cccc2c1[C@]1(O)C(O)CCCC21 (stereo partly specified)
A) > 100 µM

Q) Name the recorded TGI for O=C(NC/C=C/Br)NC1CCNc2ccccc21 (stereo unspecified) .
A) 56.8 µM

Q) Entry under review: `C=C1C(=O)O[C@H]2[C@H]([C@H](C)CCCC(C)=O)O[C@H]([C@@]3(C)CCC(=O)O3)C[C@@H]12` . Reported TGI?
A) 64.4 µM

Q) Which TGI value belongs to `Cc1ccc(S(=O)(=O)c2ccsc2N)cc1` ?
A) > 100 µM

Q) Need TGI, item CC(C)CC(NC(=O)C(COc1ccc([N+](=O)[O-])cc1)Cc1ccccc1)C(=O)Nc1ccccc1 (stereo unspecified)
A) > 100 µM

Q) Look up TGI for this compound: `Cc1nnc(CC#N)n1NC(=O)CC#N`
A) > 100 µM

Q) Recorded TGI for `CCCCCCc1cn([C@H]2C[C@H](O)[C@@H](CO)O2)c(=O)[nH]c1=O` , please?
A) > 100 µM

Q) TGI for CNC(C)Cc1ccc(O)cc1 (stereo unspecified) ?
A) > 100 µM
